PROTOCOL DESCRIPTION: Metabolite profiling and identification in rat hepatocytes
Assay type: in vitro ADME, rat (Sprague Dawley)
RUN PARAMETERS: relative abundance among metabolites of the parent (1 μM), rat hepatocytes, 1 hr, equal LC/MS sensitivity assumed
MEASURED METRIC: Percent Distribution (1 hr incubation) Rat (%)

MOLECULE: CC(=O)NC(CO)(CO)CCc1ccc(CC(=O)O)cc1 [FTY720-C2 C2-carboxylic acid]
RECORDED VALUE: 21.4
//
MOLECULE: O=C(O)CCCCCc1ccc(CCC(CO)(CO)NC(=O)CC[P+](c2ccccc2)(c2ccccc2)c2ccccc2)cc1 [FTY720-Mitoxy C6-carboxylic acid]
RECORDED VALUE: 83.6
//
MOLECULE: CC(=O)NC(CO)(CO)CCc1ccc(CCCCCCCC(=O)O)cc1 [FTY720-C2 C8-carboxylic acid]
RECORDED VALUE: 37.0
//
MOLECULE: CC(=O)NC(CO)(CO)CCc1ccc(CCCC(=O)O)cc1 [FTY720-C2 C4-carboxylic acid]
RECORDED VALUE: 9.7
//
MOLECULE: O=C(O)CCCCCCCc1ccc(CCC(CO)(CO)NC(=O)CC[P+](c2ccccc2)(c2ccccc2)c2ccccc2)cc1 [FTY720-Mitoxy C8-carboxylic acid]
RECORDED VALUE: 4.4

Data provenance: paper PMC5017749
